Test system: Hepatic stellate cell strain LX-2
Assay: In vitro effect on expression of LX-2 cell activation marker α-SMA (Western Blot, β-actin reference)
Type: cell-based
Settings: LX-2 cells, 10.0 uM, 48 hours, negative control = 100%
Starred links: 1 amine or outer side, 2 acyl side, 3 side chain; linkers in the order of their positions; H or OH if unused. Non-standard residues stand in square brackets, D forms with d. Groups on a side chain read outwards from the residue. Primed or numbered codes have the meaning given here. No end group written: not given here. *: point of attachment. C18 diacid = O=C(O)CCCCCCCCCCCCCCCCC(=O)*; γGlu = O=C(O)[C@H](CCC(=O)[*:2])N[*:1]; Stearoyl = CCCCCCCCCCCCCCCCCC(=O)*; PEG2′ = not defined here; Aib = CC(C)(N)C(=O)O
Measurement kind: Relative expression of α-SMA (α-SMA/β-actin, %)

Substance	Endpoint result
His-(D-Ser)-Gln-Gly-Thr-Phe-Thr-Ser-Asp-Tyr-Ser-Lys-Tyr-Leu-Asp-Glu-Lys(PEG2-PEG2-γGlu-CO(CH2)16CO2H)-Arg- Ala-Gln-Asp-Phe-Val-Gln-Trp-Leu-Met-Asn-Thr-Gly-Gly-Pro-Ser-Ser-Gly-Ala-Pro-Pro-Pro-Ser-NH2 (H[dS]QGTFTSDYSKYLDEK([PEG2′-PEG2′-γGlu-C18 diacid])RAQDFVQWLMNTGGPSSGAPPPS-NH2) [Compound 2]	34.65
His-(D-Ser)-Gln-Gly-Thr-Phe-Thr-Ser-Asp-Tyr-Ser-Lys-Tyr-Leu-Asp-Lys(PEG2-PEG2-γGlu-CO(CH2)16CO2H)-Arg-Arg- Ala-Gln-Asp-Phe-Val-Gln-Trp-Leu-Met-Asn-Thr-Gly-Gly-Pro-Ser-Ser-Gly-Ala-Pro-Pro-Pro-Ser-NH2 (H[dS]QGTFTSDYSKYLDK([PEG2′-PEG2′-γGlu-C18 diacid])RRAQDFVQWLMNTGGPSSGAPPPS-NH2) [Compound 17]	38.78
His-Aib-Gln-Gly-Thr-Phe-Thr-Ser-Asp-Lys(PEG2-PEG2-yGlu- CO(CH2)16CH3)-Ser-Lys-Tyr-Leu-Asp-Glu-Arg-Arg-Ala-Gln- Asp-Phe-Val-Gln-Trp-Leu-Leu-Asp-Gly-Gly-Pro-Ser-Ser-Gly-Ala-Pro-Pro-Pro-Ser-NH2 (H[Aib]QGTFTSDK([PEG2′-PEG2′-γGlu-Stearoyl])SKYLDERRAQDFVQWLLDGGPSSGAPPPS-NH2) [Compound 4]	40.19
